Origin of the recorded values: ChEMBL document CHEMBL1157539

- System: Plasmodium falciparum
- PROTOCOL_DETAILS: GSK_TCMDC: Inhibition of Plasmodium falciparum 3D7 in whole red blood cells, using parasite LDH activity as an index of growth. Test compounds present at 2uM
- Type: functional
Consider the following compounds; for each one, report its Inhibition.
Answer format: numeric, % implied, no suffix.

query: Report measured Inhibition; entry is FC(F)(F)c1ccc2[nH]c(-c3ccc(-c4cccc(CNCc5ccccc5)c4)s3)nc2c1.O=C(O)C(F)(F)F
result: 100

query: Report measured Inhibition; entry is Cl.O=C(NC1CCC(CCN2CCc3ccc(-c4cnccn4)cc3CC2)CC1)c1cccc(-n2cccn2)c1 (stereo not drawn)
result: 93

query: Report measured Inhibition; entry is Nc1nc(O)c2cc(CN(C=O)c3ccc(C(=O)N[C@@H](CCC(=O)O)C(=O)O)cc3)ccc2n1
result: 93

query: Report measured Inhibition; entry is CCCCCN1CCCC1CNS(=O)(=O)c1ccc(C(=O)Nc2ccc(C(F)(F)F)cc2)cc1.O=C(O)C(F)(F)F (stereo not drawn)
result: 87

query: Report measured Inhibition; entry is COc1cccc(C(=O)Nc2ccc(Nc3nc(C)cc(N(C)C)n3)cc2)c1
result: 92

query: Report measured Inhibition; entry is CCN(CC)CCN(Cc1ccc(-c2ccc(C(F)(F)F)cc2)cc1)C(=O)Cn1c(CCc2ccccc2F)nc(=O)c2ccccc21.O=C(O)C(O)C(O)C(=O)O
result: 95

query: Report measured Inhibition; entry is O=C(Nc1ccccc1F)NC1CCN(c2ccnc(Nc3ccc(F)cc3)n2)CC1
result: 99

query: Report measured Inhibition; entry is CC(=O)c1ccc(-c2cccc3c(CC(=O)Nc4ccc5nccc(N6CCN(C)CC6)c5c4)cccc23)cc1
result: 100
